Reported values of pKi for individual entries
tested-on: UniProt:P50406
Sequence (P50406 whole entry): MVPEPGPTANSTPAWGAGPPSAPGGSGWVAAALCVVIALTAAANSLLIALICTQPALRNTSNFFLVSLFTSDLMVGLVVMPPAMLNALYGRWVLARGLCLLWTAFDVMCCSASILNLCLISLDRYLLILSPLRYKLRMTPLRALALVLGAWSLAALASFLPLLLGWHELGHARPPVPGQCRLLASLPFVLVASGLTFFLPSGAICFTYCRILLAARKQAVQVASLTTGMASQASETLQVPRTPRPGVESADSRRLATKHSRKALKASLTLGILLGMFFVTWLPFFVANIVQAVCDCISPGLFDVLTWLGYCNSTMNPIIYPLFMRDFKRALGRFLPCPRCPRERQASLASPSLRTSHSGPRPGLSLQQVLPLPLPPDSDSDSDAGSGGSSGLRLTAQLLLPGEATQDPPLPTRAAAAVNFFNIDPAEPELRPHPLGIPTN
The read-out pKi is expressed as -log10 of concentration in moles per litre.

CN1CCN(c2cc(-c3cscn3)cc(CC3CCOCC3)n2)CC1 | 7.84

From here, focus on the item given below.
Q: I'm curious: which pKi was measured for COc1ccc(-c2cc(C(C)C3CCOCC3)nc(N3CCN(C)CC3)c2)cc1 (centres unmarked) tested on UniProt:P50406?
Ans: 7.91

----------
We begin with a simple list: items and their reported Kb.
tested-on: short form of human D2 receptor (Homo sapiens, UniProt P14416)
Construct: expressed in transfected cells; host or cells: CHO cells
Sequence (P14416 1-414 isoform P14416-2): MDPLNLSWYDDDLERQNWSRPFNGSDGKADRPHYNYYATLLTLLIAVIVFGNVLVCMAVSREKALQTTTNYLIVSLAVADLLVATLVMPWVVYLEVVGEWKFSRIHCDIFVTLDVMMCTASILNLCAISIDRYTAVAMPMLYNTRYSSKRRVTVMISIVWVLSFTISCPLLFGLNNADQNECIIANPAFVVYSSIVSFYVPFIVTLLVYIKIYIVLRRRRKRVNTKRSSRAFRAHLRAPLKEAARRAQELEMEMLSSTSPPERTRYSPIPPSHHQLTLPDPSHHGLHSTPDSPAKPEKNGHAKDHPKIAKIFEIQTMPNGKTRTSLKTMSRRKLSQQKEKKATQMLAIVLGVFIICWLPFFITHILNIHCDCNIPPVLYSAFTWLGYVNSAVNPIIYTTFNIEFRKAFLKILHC
protocol-text: D2 functional assay (cAMP-Glo, CHO cells)
Format: cell-based
settings: forskolin 10 μM, read-out: D2 antagonist Kb

The following compounds have reported results that may help.
CN1CCN(c2cc(-c3ccc4ccccc4n3)cc(CC3CCOCC3)n2)CC1 | > 3500 nM
COc1ccc(-c2cc(CC3CCOCC3)nc(N3CCC(N)CC3)c2)cc1 | > 3500 nM

Q: Form field: reported Kb of COc1ccc(-c2cc(CC3CCOCC3)nc(N3CCNC(C)(C)C3)c2)cc1
Ans: > 3500 nM

Q: Which value of Kb has been reported for CN1CCN(c2cc(-c3ccccn3)cc(CC3CCOCC3)n2)CC1 in the records?
Ans: > 2000 nM

Q: Sample COc1ccc(-c2cc(C(C)C3CCOCC3)nc(N3CCN(C)CC3)c2)cc1 (stereo not shown) — what was its Kb?
Ans: 340 nM

Q: I am curious: what Kb value has been reported for CN1CCN(c2cc(-c3cscn3)cc(CC3CCOCC3)n2)CC1 ?
Ans: 781 nM

Q: Can you look up the measured Kb of COc1ccc(-c2cc(CC3CCOCC3)nc(N3CCN(C)CC3)c2)c(F)c1 for me?
Ans: > 2000 nM

----------
tested-on: human H1 receptor (Homo sapiens)
Construct: expressed in transfected cells; host or cells: CHO cells
Sequence (P35367 whole entry): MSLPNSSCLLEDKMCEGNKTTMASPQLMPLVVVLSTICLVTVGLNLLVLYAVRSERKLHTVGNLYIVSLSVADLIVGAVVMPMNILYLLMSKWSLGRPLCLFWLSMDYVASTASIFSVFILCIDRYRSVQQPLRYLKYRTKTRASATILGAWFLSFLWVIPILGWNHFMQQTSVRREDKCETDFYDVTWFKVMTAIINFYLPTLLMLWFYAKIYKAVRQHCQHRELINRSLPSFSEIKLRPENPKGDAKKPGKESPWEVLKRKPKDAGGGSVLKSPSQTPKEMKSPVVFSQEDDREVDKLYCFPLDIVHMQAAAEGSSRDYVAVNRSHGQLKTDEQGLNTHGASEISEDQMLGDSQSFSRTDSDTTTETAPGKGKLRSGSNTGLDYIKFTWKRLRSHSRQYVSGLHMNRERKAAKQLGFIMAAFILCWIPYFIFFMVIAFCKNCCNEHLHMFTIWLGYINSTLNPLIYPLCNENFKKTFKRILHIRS
protocol-text: H1 functional assay (calcium response, CHO cells)
Type: cell-based
settings: agonist histamine, 30 min preincubation, Fluo-4NW calcium, read-out: H1 antagonist Kb
result-type: Kb

CN1CCN(c2cc(-c3cscn3)cc(CC3CCOCC3)n2)CC1 | > 5 µM
COc1ccc(-c2cc(C(C)C3CCOCC3)nc(N3CCN(C)CC3)c2)cc1 (stereo not shown) | > 2 µM
COc1ccc(-c2cc(CC3CCOCC3)nc(N3CCC(N)CC3)c2)cc1 | > 1 µM

// next item, Kb requested
Q: Report Kb for CN1CCN(c2cc(-c3ccccn3)cc(CC3CCOCC3)n2)CC1 please.
Ans: > 5 µM

Attribution: patent US20160009697A1
